Each item that follows carries a reported Remaining activity [%].
study.system: VLP2 (virus-like particles, capsid protein particles of AAV serotype 2) (AAV serotype 2 (AAV2)) (UniProt P03135)
Sequence (P03135 whole entry): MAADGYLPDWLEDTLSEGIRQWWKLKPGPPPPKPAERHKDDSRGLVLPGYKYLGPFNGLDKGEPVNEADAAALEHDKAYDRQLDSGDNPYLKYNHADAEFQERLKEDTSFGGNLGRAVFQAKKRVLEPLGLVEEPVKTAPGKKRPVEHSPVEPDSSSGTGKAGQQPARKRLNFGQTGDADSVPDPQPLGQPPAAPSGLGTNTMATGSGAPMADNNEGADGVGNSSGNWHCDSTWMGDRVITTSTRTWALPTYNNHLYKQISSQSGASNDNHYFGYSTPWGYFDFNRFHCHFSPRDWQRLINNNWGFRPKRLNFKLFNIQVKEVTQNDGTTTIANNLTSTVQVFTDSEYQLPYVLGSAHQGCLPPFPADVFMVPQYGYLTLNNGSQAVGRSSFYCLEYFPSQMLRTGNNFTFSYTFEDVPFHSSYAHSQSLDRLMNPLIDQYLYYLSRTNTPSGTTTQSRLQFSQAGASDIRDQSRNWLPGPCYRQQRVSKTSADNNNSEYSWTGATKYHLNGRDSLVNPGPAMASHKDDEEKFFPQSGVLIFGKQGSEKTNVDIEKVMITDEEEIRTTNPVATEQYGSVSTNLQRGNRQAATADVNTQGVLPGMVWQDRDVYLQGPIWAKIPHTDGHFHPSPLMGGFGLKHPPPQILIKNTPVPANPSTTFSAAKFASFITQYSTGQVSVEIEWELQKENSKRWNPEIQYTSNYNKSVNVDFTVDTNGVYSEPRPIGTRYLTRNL
measurement.protocol: ELISA on immobilised VLP2 (purified protein); A450 after 1:1 0.5 M NaOH, 30°C, 30 min divided by A450 at 0 time
property.label: Remaining activity [%] (%)

- AVR24b (AVR21 with K338R, T426A, A461P) (receptor) MGSAGESDQITLPKHEAQLNVYVLLVPPRGEASTYDWQLITHPRDYSGEMEGEHSQILKLSNLTPGLYEYRAVVEGQNAHSEGYVNVTVEPEPRKNRPPIAIVSPQFQEISLPTTSAVIDGSQSTDDDKIVQYHWEELKGPLREEKISEDTPILKLSQLVPGNYTFRLTVVDTDGATDSTTADLTVNKAVDHHHHHH: 89.1
- AAV-binding protein AVR21 (receptor) MGSAGESDQITLPKHEAQLNVYVLLVPPKGEASTYDWQLITHPRDYSGEMEGEHSQILKLSNLTPGLYEYRAVVEGQNAHSEGYVNVTVEPEPRKNRPPIAIVSPQFQEISLPTTSTVIDGSQSTDDDKIVQYHWEELKGPLREEKISEDTAILKLSQLVPGNYTFRLTVVDTDGATDSTTADLTVNKAVDHHHHHH: 16.9
- AVR26 (AVR21 with N329K, K338R, E401G, T426A, A461P) (receptor) MGSAGESDQITLPKHEAQLKVYVLLVPPRGEASTYDWQLITHPRDYSGEMEGEHSQILKLSNLTPGLYEYRAVVEGQNAHSEGYVNVTVEPGPRKNRPPIAIVSPQFQEISLPTTSAVIDGSQSTDDDKIVQYHWEELKGPLREEKISEDTPILKLSQLVPGNYTFRLTVVDTDGATDSTTADLTVNKAVDHHHHHH: 100

// data source = patent EP4717706A1
